Below are MIC values measured for Escherichia coli (ATCC 25922).
property name: MIC

INSERT INTO assay_data (molecule, property_name, endpoint_value) VALUES
  ('CCCCCCCCCCCCCCCC(=O)OC1=C([C@@H]2CCN(C(=O)CCCCCCCCCCCCCCC)C3=C2C(=O)O[C@@H]3C)C(=O)O[C@@H]1C [Compound 1a]', 'MIC', '> 1000 µg/mL'),
  ('O=C(O)c1cn(C2CC2)c2cc(N3CCNCC3)c(F)cc2c1=O [Ciprofloxacin, reference compound]', 'MIC', '< 30 µg/mL'),
  ('O=c1[nH]c2ccccc2c(-c2ccccc2)c1O [Compound 4, 3-hydroxy-4-phenylquinolin-2(1H)-one]', 'MIC', '> 1000 µg/mL');
